B1: MFF (parent)
chain: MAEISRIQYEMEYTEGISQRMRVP

Variants of: B1
run_description: protein stability index of a GFP-peptide fusion (GPS, HEK-293T) (PSI 1-6); higher = more stable;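 note: lentivirally expressed fusions sorted by FACS into six bins by GFP to DsRed ratio, PSI derived from sequencing read proportions per bin multiplied by bin number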
conditions: c terminus: a fixed tail appended
reported_endpoint: protein stability index
Simply state the number, no unit and no words.

# mutation_code, protein stability index
rows = [
    ("E12Q", 1.87),
    ("I7F", 2.69),
    ("E15T", 2.56),
]

Kindly consider the entry below.
Recorded protein stability index for Y13D , please?
3.95
